experimental-system: PDGF-R (Homo sapiens)
Sequence (P09619 33-1106, species assumed): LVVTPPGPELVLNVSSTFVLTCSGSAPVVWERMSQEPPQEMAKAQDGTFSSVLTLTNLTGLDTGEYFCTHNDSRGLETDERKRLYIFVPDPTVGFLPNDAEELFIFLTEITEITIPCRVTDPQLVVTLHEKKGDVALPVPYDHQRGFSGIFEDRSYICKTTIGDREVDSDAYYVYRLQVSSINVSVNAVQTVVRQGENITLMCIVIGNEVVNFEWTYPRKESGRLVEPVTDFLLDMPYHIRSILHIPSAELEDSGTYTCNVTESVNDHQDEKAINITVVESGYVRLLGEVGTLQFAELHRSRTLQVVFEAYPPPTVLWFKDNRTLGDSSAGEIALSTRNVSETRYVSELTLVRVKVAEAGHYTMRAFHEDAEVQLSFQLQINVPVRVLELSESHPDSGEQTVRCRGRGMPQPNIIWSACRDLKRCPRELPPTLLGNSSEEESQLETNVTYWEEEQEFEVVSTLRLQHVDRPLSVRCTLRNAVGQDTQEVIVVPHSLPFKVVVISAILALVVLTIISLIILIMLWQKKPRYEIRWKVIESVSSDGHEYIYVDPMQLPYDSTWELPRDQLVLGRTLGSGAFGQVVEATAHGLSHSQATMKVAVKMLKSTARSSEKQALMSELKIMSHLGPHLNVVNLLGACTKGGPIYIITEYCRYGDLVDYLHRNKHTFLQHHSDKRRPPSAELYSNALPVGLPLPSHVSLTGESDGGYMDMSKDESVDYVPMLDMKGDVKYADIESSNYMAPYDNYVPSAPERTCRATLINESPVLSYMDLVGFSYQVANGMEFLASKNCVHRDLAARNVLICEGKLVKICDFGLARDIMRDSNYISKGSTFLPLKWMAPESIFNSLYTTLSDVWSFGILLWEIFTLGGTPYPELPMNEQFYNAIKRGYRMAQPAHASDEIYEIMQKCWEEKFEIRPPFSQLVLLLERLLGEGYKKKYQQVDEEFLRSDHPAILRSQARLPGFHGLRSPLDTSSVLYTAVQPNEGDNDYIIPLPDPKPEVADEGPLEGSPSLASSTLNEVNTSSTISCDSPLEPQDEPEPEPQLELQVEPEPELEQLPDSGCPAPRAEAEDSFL
measurement-description: PDGF-R ELISA
Assay type: cell-based
Use class 1 when the recorded PDGF Kinase %Inhibition is no lower than 20%; use class 0 when it is lower.

Answered examples (5):
In [3]: df
Out[3]:
                                   molecule    experimental_system  class_name
0  O=C1Nc2ccc(S(=O)(=O)N3CCOCC3)cc2C1=Cc1cc(O)c2c(c1O)CCCC2  PDGF-R (Homo sapiens)     class 0
1  CNS(=O)(=O)c1ccc2c(c1)C(=Cc1ccccn1)C(=O)N2  PDGF-R (Homo sapiens)     class 0
2  Cc1c(Br)ccc2c1C(=Cc1c(Br)cnn1-c1ccc(Cl)cc1)C(=O)N2  PDGF-R (Homo sapiens)     class 1
3  CNS(=O)(=O)c1ccc2c(c1)C(=Cc1cc(I)c(OC)c(C(C)(C)C)c1)C(=O)N2  PDGF-R (Homo sapiens)     class 0
4  Cc1c(Br)ccc2c1C(=Cc1cccc(C(F)(F)F)c1F)C(=O)N2  PDGF-R (Homo sapiens)     class 0

Prompt line: Identify whether the reported PDGF Kinase %Inhibition of the following molecule is 20% or greater: "Cc1c(Br)ccc2c1C(=Cc1ccc([N+](=O)[O-])c(O)c1)C(=O)N2"
Response line: class 1

Prompt line: Another: "Cc1c(Br)ccc2c1C(=Cc1cc(C(C)C)c(Oc3ccccc3)c(C(C)C)c1)C(=O)N2"
Response line: class 0

Prompt line: Next molecule up: "CNS(=O)(=O)c1ccc2c(c1)C(=Cc1cc(I)c(OCc3ccccc3)c(C(C)(C)C)c1)C(=O)N2"
Response line: class 0

----------
experimental-system: FLK-1 receptor (Mus musculus)
Construct: expressed in transfected cells; host or cells: NIH3T3 C7#3
Sequence (P35918 20-1345): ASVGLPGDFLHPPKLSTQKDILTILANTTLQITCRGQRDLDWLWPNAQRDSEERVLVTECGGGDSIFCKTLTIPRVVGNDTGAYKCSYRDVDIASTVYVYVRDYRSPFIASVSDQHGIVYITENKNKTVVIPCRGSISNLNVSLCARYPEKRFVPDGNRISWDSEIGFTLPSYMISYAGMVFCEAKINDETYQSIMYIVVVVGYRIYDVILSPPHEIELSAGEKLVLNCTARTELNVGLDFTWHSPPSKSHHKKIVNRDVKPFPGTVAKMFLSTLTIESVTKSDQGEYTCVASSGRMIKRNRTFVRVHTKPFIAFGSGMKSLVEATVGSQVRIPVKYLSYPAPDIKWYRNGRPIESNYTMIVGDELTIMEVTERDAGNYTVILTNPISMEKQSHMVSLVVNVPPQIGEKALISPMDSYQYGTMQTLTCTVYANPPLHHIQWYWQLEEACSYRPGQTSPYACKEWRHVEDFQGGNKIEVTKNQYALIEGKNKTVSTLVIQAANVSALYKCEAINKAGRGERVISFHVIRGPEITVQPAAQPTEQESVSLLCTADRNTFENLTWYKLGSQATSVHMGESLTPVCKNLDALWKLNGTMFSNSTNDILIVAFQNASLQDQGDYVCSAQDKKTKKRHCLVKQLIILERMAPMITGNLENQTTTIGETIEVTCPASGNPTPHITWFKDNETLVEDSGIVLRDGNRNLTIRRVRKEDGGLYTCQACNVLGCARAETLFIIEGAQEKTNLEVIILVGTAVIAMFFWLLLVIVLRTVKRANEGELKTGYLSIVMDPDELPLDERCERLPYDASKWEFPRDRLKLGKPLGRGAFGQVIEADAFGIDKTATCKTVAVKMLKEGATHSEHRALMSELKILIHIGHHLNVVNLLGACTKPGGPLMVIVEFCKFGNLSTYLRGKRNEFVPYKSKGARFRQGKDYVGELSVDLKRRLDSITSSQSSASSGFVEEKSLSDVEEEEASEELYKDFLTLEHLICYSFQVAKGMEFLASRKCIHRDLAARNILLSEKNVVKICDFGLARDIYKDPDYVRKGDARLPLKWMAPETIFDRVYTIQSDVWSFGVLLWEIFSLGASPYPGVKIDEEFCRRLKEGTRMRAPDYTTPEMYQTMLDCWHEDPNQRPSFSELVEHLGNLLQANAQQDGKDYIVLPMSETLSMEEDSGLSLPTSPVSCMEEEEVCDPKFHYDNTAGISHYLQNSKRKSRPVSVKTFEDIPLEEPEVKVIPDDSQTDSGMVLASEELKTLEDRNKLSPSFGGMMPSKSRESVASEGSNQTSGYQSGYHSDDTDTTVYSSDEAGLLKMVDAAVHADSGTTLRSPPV
measurement-description: FLK-1 ELISA (kinase activity of the FLK-1 receptor in FLK-1/NIH3T3 cells, VEGF stimulated)
Assay type: cell-based
result-type: Fik Kinase %Inhibition (%)
Numbers only; they are read as %.

Observe how each entry below is paired with its result.
                                   molecule  recorded_measurement
0  Cc1c(Br)ccc2c1C(=Cc1cc(I)c(OCc3ccccc3)c(C(C)(C)C)c1)C(=O)N2                   5.8
1  COc1cc(C)cc(O)c1C=C1C(=O)Nc2ccc(S(=O)(=O)Nc3ccc(C(F)(F)F)cc3)cc21                  -1.8
2         Cc1ccsc1C=C1C(=O)Nc2ccc(CCCl)cc21                   8.7
3        Cc1c(Br)ccc2c1C(=Cc1ccccn1)C(=O)N2                 -22.4
4  O=C1Nc2ccc(S(=O)(=O)Nc3ccc(C(F)(F)F)cc3)cc2C1=Cc1ccc(N2CCCC2)cc1                   5.7
5  Cc1c(Br)ccc2c1C(=Cc1c(F)cc(F)cc1F)C(=O)N2                  18.0
6  CN(C)c1ccc(C=C2C(=O)Nc3ccc(CCCl)cc32)cc1                   3.2
7  O=C1Nc2ccccc2C1=C1C(=O)Nc2c(Br)cc(Br)cc21                  -4.5

Read the next record carefully.
Prompt line: Report Fik Kinase %Inhibition for "O=C1Nc2ccc(I)cc2C1=Cc1cc(O)c2c(c1O)CCCC2" please.
Response line: -36.5
